Tested on: Biotin QP004.3 (biotin-PDL1-FC) (human) (UniProt Q9NZQ7)
Sequence (Q9NZQ7 19-238 limits assumed): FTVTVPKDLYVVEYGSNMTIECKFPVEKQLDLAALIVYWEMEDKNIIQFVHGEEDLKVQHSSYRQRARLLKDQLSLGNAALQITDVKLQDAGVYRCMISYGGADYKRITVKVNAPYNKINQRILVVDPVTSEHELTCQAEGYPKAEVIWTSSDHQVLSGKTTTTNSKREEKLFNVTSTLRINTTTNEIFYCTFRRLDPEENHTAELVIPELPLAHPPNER
Test description: binding ELISA, antibody coated, biotin-PDL1-FC titrated
Quantity measured: ELISA reading at 0.5000 µg/ml biotin-PDL1-FC

Consider the following illustrative entries.
1) QP1166 (Fc fusion, not shown: a dimerising Fc or GST) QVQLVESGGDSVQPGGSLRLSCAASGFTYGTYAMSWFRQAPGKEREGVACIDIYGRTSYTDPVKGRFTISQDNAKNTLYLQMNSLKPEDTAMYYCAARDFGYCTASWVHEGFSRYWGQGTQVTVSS = 3.28
2) QP325 (Fc fusion, not shown: a dimerising Fc or GST) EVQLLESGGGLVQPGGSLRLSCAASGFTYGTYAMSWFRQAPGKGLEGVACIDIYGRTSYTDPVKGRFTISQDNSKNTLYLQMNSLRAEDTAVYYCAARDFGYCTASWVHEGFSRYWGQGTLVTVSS = 3.21
3) QP320 (Fc fusion, not shown: a dimerising Fc or GST) EVQLLESGGGLVQPGGSLRLSCAASGFTYGTYAMSWVRQAPGKGLEWVSCIDIYGRASYTDPVKGRFTISRDNSKNTLYLQMNSLRAEDTAVYYCAARDFGYCTASWVHEGFSRYWGQGTLVTVSS = 0.142

Now take the following binder into account.
According to the records, this binder QP324 (Fc fusion, not shown: a dimerising Fc or GST) EVQLLESGGGLVQPGGSLRLSCAASGFTYGTYAMSWVRQAPGKGLEWVACIDIYGRTSYTDPVKGRFTISQDNSKNTLYLQMNSLRAEDTAVYYCAARDFGYCTASWVHEGFSRYWGQGTLVTVSS displays ELISA reading at 0.5000 µg/ml biotin-PDL1-FC of 0.201
